- Test system: Candida albicans
- test: Antifungal activity against Candida albicans Y0109 after 24 hrs by micro-broth dilution method
- Assay type: functional
- experimental.setup: Y0109, 24 h
reported.property: MIC80

Exercise: Look up MIC80 for this molecule: O=C1CCN(C(=S)SCC(O)(Cn2cncn2)c2ccc(F)cc2F)CC1 (racemic)
Solution: ≤ 0.125 µg/mL

Exercise: Then what about the molecule Cc1ccccc1N1CCN(C(=S)SCC(O)(Cn2cncn2)c2ccc(F)cc2F)CC1 (racemic) ?
Solution: ≤ 0.125 µg/mL

Exercise: Follow-up item: OC(CSC(=S)N1CCN(c2ccc(Cl)cc2)CC1)(Cn1cncn1)c1ccc(F)cc1F (racemic)
Solution: ≤ 0.125 µg/mL
